The following compounds are listed with their measured Ki values.
Molecular target: rat-MOR (Rattus norvegicus)
Construct: expressed in transfected cells
Sequence (P33535 whole entry): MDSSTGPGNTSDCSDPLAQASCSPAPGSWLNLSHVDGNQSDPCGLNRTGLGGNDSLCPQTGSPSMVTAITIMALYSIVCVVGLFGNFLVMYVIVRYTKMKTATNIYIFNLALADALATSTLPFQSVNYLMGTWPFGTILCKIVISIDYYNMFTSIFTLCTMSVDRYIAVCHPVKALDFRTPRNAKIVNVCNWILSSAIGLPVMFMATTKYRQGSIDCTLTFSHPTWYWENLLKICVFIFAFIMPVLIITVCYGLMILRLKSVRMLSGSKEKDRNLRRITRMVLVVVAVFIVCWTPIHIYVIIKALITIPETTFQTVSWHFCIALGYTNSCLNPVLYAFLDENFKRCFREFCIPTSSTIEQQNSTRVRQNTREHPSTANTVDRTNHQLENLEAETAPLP
Assay: Radioligand competition binding, [3H]-DPN, HEK293 membranes, MOR
Give the value in nM but do not write nM after it.

Inquiry: Fill in reported Ki for this entry: C[C@H]1[C@H]2Cc3ccc(O)cc3[C@]1(C)CCN2CCC(=O)Nc1ccc(C#N)cc1
Reply text: 210

Inquiry: Look up Ki of Cc1ccc(NC(=O)CCN2CC[C@@]3(C)c4cc(O)ccc4C[C@@H]2[C@@H]3C)cc1 and report it.
Reply text: 240

Inquiry: Please report the measured Ki for C[C@H]1[C@H]2Cc3ccc(O)cc3[C@]1(C)CCN2CCC(=O)Nc1ccc(F)cc1
Reply text: 280

Inquiry: For the compound C[C@H]1[C@H]2Cc3ccc(O)cc3[C@]1(C)CCN2CCC(=O)N(c1ccccc1)c1ccccc1 , give its reported Ki.
Reply text: 170

Please turn your attention to the following entry.
Inquiry: Entry COc1ccc(NC(=O)CCN2CC[C@@]3(C)c4cc(O)ccc4C[C@@H]2[C@@H]3C)cc1 needs its Ki filled in; supply it.
Reply text: 180

###

observable: melting point

Inquiry: Specify melting point for C[C@H]1[C@H]2Cc3ccc(O)cc3[C@]1(C)CCN2CCC(=O)N1CCc2ccccc21 [Compound 14] and stop.
Reply text: 169 °C (dec.)

Inquiry: Answer with reported melting point of C[C@H]1[C@H]2Cc3ccc(O)cc3[C@]1(C)CCN2CCC(=O)N1CCCc2ccccc21 [Compound 15]
Reply text: 92.2 °C (dec.)

Inquiry: Answer with the recorded melting point for the compound listed here: COc1ccc(NC(=O)CCN2CC[C@@]3(C)c4cc(O)ccc4C[C@@H]2[C@@H]3C)cc1 [Compound 13]
Reply text: 172.9 to 173.5 °C

Turning now to a further compound:
Inquiry: Indicate its recorded melting point; the compound in question is C[C@H]1[C@H]2Cc3ccc(O)cc3[C@]1(C)CCN2CCC(=O)N(c1ccccc1)c1ccccc1 [Compound 16]
Reply text: 173.5 °C (dec.)

###

Target: recombinant human MOR (Homo sapiens, UniProt P35372)
Construct: expressed in transfected cells; gift of Dr. Larry Toll (SRI International); infected with a retrovirus for Gαqi5
Sequence (P35372 whole entry): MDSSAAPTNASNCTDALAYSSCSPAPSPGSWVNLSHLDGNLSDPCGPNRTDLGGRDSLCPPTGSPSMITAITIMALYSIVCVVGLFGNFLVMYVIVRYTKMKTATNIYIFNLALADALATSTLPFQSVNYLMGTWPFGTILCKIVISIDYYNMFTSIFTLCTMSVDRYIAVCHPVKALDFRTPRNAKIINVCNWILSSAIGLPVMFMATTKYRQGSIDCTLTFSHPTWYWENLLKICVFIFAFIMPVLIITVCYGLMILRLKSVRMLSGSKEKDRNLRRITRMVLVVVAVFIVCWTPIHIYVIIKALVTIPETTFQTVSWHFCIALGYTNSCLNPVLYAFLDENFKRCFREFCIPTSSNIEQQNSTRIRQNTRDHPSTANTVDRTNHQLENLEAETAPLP
Test: Calcium mobilization assay, CHO-MOR cells expressing Gαqi5
Format: cell-based
Settings: calcium mobilization
observable: functional profile at MOR

Inquiry: Determine reported functional profile at MOR for Cc1ccc(NC(=O)CCN2CC[C@@]3(C)c4cc(O)ccc4C[C@@H]2[C@@H]3C)cc1 [Compound 11] ; test system: recombinant human MOR (Homo sapiens, UniProt P35372).
Reply text: MOR partial agonists

Inquiry: Provide the reported functional profile at MOR (system: recombinant human MOR (Homo sapiens, UniProt P35372)) for C[C@H]1[C@H]2Cc3ccc(O)cc3[C@]1(C)CCN2CCC(=O)Nc1ccc(F)cc1 [Compound 10]
Reply text: MOR partial agonists

Inquiry: Retrieve functional profile at MOR on recombinant human MOR (Homo sapiens, UniProt P35372); query C[C@H]1[C@H]2Cc3ccc(O)cc3[C@]1(C)CCN2CCC(=O)Nc1ccc(C#N)cc1 [Compound 12]
Reply text: MOR partial agonists

###

Target: human-KOR (Homo sapiens)
Sequence (P41145 whole entry): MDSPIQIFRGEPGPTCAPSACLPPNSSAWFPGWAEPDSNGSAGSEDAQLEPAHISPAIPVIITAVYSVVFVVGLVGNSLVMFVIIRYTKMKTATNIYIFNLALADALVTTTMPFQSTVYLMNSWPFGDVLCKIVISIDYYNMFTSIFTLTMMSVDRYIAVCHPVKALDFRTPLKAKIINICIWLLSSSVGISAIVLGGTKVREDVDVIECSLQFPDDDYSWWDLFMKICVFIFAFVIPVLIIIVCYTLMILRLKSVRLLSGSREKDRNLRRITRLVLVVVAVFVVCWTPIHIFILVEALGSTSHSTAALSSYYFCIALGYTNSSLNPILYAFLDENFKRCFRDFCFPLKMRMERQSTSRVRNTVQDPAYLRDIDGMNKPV
Assay: Calcium mobilization assay, CHO-KOR cells expressing Gαqi5
Type: cell-based
Set-up: expressed in transfected cells; gift of Dr. Larry Toll (SRI International); infected with a retrovirus for Gαqi5
Settings: calcium mobilization
observable: functional profile at KOR

Inquiry: Give the value of functional profile at KOR reported for the following: Cc1ccc(NC(=O)CCN2CC[C@@]3(C)c4cc(O)ccc4C[C@@H]2[C@@H]3C)cc1
Reply text: DOR/KOR antagonists

Inquiry: Please supply the value of reported functional profile at KOR for the item C[C@H]1[C@H]2Cc3ccc(O)cc3[C@]1(C)CCN2CCC(=O)Nc1ccc(C#N)cc1
Reply text: DOR/KOR antagonists
